Tested on: broadleaf signalgrass (Brachiaria decumbens)
Measurement description: Test B pre-/postemergence
Assay type: in vivo
Test context: Rate 62 g/ha, Postemergence
Values of Plant response rating, B. signalgrass strictly less than 2 map to yes, and values of at least 2 map to no.

// known answers, use as guide
| Molecule | Classification |
| --- | --- |
| Cc1cnc(-c2ccc(Cl)cc2)nc1Cc1cccc(C#N)c1 [Compound 33] | yes |
| Cc1cnc(-c2ccc(Cl)cc2F)nc1Cc1cccc(C(F)(F)F)c1 [Compound 29] | no |
| CCc1cnc(-n2ccc(C(F)(F)F)n2)nc1Cc1cccc(OC(F)(F)F)c1 [Compound 47] | no |
| Cc1cnc(-c2ccc(Cl)c(Cl)c2)nc1Cc1cccc(C#N)c1 [Compound 38] | yes |
| COc1cnc(-n2ccc(C(F)(F)F)n2)nc1Cc1cccc(C(F)(F)F)c1 [Compound 45] | yes |

Next, consider the following molecule.
Is 2 strictly greater than the molecule's reported Plant response rating, B. signalgrass? molecule: Cc1cnc(-c2ccccc2F)nc1Cc1cccc(C#N)c1 [Compound 37] yes
